- Test target: T1, His-tagged CEACAM1 (human, UniProt P13688 35-428)
- T1 construct: 45 kDa SPR analyte; also called CEACAM1-HIS; CEACAM1 analyte
- T1 sequence: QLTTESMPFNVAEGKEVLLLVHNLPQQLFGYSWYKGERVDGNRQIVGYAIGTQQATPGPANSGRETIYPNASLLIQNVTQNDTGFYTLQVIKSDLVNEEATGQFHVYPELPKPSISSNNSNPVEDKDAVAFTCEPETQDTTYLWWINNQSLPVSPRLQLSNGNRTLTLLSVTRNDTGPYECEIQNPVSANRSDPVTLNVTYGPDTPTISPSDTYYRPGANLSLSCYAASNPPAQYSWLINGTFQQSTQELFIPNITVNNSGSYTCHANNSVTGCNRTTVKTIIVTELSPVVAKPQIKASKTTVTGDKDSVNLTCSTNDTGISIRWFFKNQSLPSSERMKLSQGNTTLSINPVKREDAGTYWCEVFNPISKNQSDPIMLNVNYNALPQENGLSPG
- Protocol text: SPR single-cycle, supernatant IgG captured
Measured property: relative KD to parent
Could you respond with only the numeric value?

Please list relative KD to parent recorded for the binder CP09C02/Vκ8 S29A (antibody, IgG4, V domains shown, IgG4 (S241P), kappa) VH: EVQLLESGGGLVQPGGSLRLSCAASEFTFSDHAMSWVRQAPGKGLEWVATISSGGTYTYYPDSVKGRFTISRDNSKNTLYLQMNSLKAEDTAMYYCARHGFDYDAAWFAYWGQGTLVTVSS VL: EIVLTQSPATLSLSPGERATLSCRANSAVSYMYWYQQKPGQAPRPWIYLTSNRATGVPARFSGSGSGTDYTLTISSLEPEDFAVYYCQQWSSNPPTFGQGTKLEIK
3.3

Please list relative KD to parent recorded for the binder CP09B03/CP08G09 (antibody, IgG4, V domains shown, IgG4 (S241P), kappa) VH: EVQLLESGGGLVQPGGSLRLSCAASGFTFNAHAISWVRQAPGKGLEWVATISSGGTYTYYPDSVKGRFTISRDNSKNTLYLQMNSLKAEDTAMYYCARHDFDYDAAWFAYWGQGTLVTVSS VL: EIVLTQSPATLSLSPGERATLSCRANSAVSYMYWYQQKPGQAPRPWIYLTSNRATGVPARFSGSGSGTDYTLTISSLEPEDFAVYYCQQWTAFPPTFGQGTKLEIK
1.9

Please list relative KD to parent recorded for the binder CP09E05/CP08D02 (antibody, IgG4, V domains shown, IgG4 (S241P), kappa) VH: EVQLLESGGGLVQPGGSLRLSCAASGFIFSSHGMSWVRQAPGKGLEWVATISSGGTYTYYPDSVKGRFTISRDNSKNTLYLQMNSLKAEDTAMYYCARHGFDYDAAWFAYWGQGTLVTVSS VL: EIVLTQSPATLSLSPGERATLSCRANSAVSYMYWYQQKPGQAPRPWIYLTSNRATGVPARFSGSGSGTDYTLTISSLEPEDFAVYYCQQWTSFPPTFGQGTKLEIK
1.7

Please list relative KD to parent recorded for the binder CP09B03/Vκ8 S29A (antibody, IgG4, V domains shown, IgG4 (S241P), kappa) VH: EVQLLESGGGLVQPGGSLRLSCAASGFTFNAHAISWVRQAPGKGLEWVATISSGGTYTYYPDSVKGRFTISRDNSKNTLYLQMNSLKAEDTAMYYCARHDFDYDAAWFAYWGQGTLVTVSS VL: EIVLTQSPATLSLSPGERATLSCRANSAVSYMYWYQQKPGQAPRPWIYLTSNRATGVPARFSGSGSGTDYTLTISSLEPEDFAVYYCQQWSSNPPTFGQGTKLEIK
1.8

This collection of values is drawn from patent US20250074980A1.
